Assay: Whole blood PK of drug eluting stents
Details: pig, whole blood, other: drug eluting stents implanted in coronary arteries, Whole blood concentration, SS17 stents; 1 H group; 60 min. (1 hr)
Property name: concentration at 60 min (ng/mL)

[[record]]
compound_structure = "O=C(NC[C@H]1CN(c2ccc(N3CCOCC3=O)cc2)C(=O)O1)c1ccc(Cl)s1"
unit_text = "ng/mL"
result_value = 7.54


###

Assay: Whole blood PK of drug eluting stents
Details: pig, whole blood, other: drug eluting stents implanted in coronary arteries, Whole blood concentration, SS17 stents; 1 H group; 15 min.
Property name: concentration at 15 min

[[record]]
compound_structure = "O=C(NC[C@H]1CN(c2ccc(N3CCOCC3=O)cc2)C(=O)O1)c1ccc(Cl)s1"
property_name = "concentration at 15 min"
result_value = "10.8 ng/mL"


###

Assay: Whole blood PK of drug eluting stents
Details: pig, whole blood, other: drug eluting stents implanted in coronary arteries, Whole blood concentration, SS17 stents; 1 D group; 120 min. (2 hr)
Property name: concentration at 120 min (ng/mL)

[[record]]
compound_structure = "O=C(NC[C@H]1CN(c2ccc(N3CCOCC3=O)cc2)C(=O)O1)c1ccc(Cl)s1"
result_value = 11.6


###

Experiment: Whole blood PK of drug eluting stents
Details: pig, whole blood, other: drug eluting stents implanted in coronary arteries, Whole blood concentration, SS16 stents; 1 D group; 5 hr
Property name: concentration at 5 hr (ng/mL)

[[record]]
compound = "O=C(NC[C@H]1CN(c2ccc(N3CCOCC3=O)cc2)C(=O)O1)c1ccc(Cl)s1 [Rivaroxaban]"
unit_text = "ng/mL"
result_value = 1.11


###

Test: physchem
Settings: aqueous buffer, solubility in aqueous buffers
Property name: solubility

[[record]]
molecule = "CC1CNc2c(cccc2S(=O)(=O)N[C@@H](CCCNC(=N)N)C(=O)N2CC[C@@H](C)C[C@@H]2C(=O)O)C1 (stereo partly shown) [Argatroban]"
result_value = "~3000 µg/mL"


###

Test: Whole blood PK of drug eluting stents
Settings: pig, whole blood, other: drug eluting stents implanted in coronary arteries, Whole blood concentration, SS16 stents; 1 H group; 60 min. (1 hr)
Property name: concentration at 60 min

[[record]]
compound_structure = "O=C(NC[C@H]1CN(c2ccc(N3CCOCC3=O)cc2)C(=O)O1)c1ccc(Cl)s1"
result_value = "4.08 ng/mL"


###

Test: Whole blood PK of drug eluting stents
Conditions: pig, whole blood, other: drug eluting stent implanted in coronary artery, Whole blood concentration, SS17 stents; 1 D group; 180 min. (3 hr)
Property name: concentration at 180 min

[[record]]
compound_structure = "O=C(NC[C@H]1CN(c2ccc(N3CCOCC3=O)cc2)C(=O)O1)c1ccc(Cl)s1"
property_name = "concentration at 180 min"
result_value = "8.39 ng/mL"


###

Assay: Whole blood PK of drug eluting stents
Conditions: pig, whole blood, other: drug eluting stents implanted in coronary arteries, Whole blood concentration, SS17 stents; 1 D group; 90 min.
Property name: concentration at 90 min (ng/mL)

[[record]]
compound_structure = "O=C(NC[C@H]1CN(c2ccc(N3CCOCC3=O)cc2)C(=O)O1)c1ccc(Cl)s1"
result_value = 15

